Listing of recorded Plant response rating, Barnyardgrass by entry.
Test system: barnyardgrass
Experiment: Test C flooded paddy test
Format: in vivo, Echinochloa crus-galli
Conditions: Flood, 250 g ai/ha; scale 0 to 100 (0 no effect, 100 complete control)

compound="Cc1cc[n+]([O-])c([S+]([O-])C(C)c2c(C(F)(F)F)nn(C)c2Cl)c1 (mixture of isomers) [Compound 15]" value=20
compound="Cn1nc(C(F)(F)F)c(C[S+]([O-])c2cccc[n+]2[O-])c1OC(F)F (centres unmarked) [Compound 3]" value=85
compound="Cc1cc[n+]([O-])c(S(=O)(=O)Cc2c(C(F)(F)F)nn(C)c2OC(F)F)c1 [Compound 2]" value=85
compound="CC(c1c(C(F)(F)F)nn(C)c1Cl)S(=O)(=O)c1cccc[n+]1[O-] (centres unmarked) [Compound 10]" value=85
compound="Cc1cc[n+]([O-])c(S(=O)(=O)C(C)c2c(C(F)(F)F)nn(C)c2OC(F)F)c1 (centres unmarked) [Compound 11]" value=85

Give recorded Plant response rating, Barnyardgrass. Cn1nc(C(F)(F)F)c(C(Cl)S(=O)(=O)c2cccc[n+]2[O-])c1Cl (centres unmarked) [Compound 12]
85

Could you please provide reported Plant response rating, Barnyardgrass for Cn1nc(C(F)(F)F)c(CS(=O)(=O)c2ccc(Cl)c[n+]2[O-])c1Cl [Compound 18] ? Thanks!
85

Kindly indicate its recorded Plant response rating, Barnyardgrass. Item: Cc1cc[n+]([O-])c(S(=O)(=O)C(C)c2c(C(F)(F)F)nn(C)c2Cl)c1 (racemic) [Compound 14]
100
